Where do the numbers come from? From patent US20260098059A1.

Recorded Wnt Reporter EC50, one value per entry.
Molecular target: T1, β-catenin (UniProt P35222 134-665, limits assumed, biotinylated in the SPR and plate assays)
T1 sequence (looked up): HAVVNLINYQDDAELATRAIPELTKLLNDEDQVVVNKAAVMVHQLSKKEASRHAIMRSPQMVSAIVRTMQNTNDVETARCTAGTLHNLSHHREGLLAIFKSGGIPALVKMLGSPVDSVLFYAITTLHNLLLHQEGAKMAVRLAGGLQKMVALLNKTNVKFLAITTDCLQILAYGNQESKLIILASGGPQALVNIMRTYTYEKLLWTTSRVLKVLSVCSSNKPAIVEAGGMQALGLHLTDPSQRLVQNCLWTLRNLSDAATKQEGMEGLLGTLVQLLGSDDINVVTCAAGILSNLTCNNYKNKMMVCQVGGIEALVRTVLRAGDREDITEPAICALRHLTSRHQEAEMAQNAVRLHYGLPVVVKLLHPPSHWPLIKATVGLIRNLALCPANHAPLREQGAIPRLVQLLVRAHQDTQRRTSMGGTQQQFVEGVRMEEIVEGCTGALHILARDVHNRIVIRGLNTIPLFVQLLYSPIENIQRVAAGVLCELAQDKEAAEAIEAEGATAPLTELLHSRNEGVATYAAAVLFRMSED
Assay: cell-based or functional assay
Where no end group is shown, it is not given here. [ ]: non-standard residue; d: D form. NMeW = CN[C@@H](Cc1c[nH]c2ccccc12)C(=O)O; αMeV = CC(C)[C@](C)(N)C(=O)O

BINDER	READING
H-MSRMWFLICFWG-OH [SEQ ID NO: 46]	≤ 7.5 µM
H-HMWILICFWG-OH [SEQ ID NO: 114]	≤ 7.5 µM
H-W[NMeW]ESILDEH[αMeV]QRVWG-NH2 [SEQ ID NO: 39]	> 30 µM
H-HWILICFWG-OH [SEQ ID NO: 118]	≤ 7.5 µM
MSRKWFLISFW-NH2 [SEQ ID NO: 87]	> 30 µM

Lookup: Need Wnt Reporter EC50 of H-MIRMWFLISFWG-OH [SEQ ID NO: 15] , thanks.
Found: ≤ 7.5 µM

Lookup: # repeat for H-MSRMWFPISFWG-OH [SEQ ID NO: 65]
Found: > 30 µM

Lookup: Query MWFLICFW (HELM PEPTIDE1{[ac].M.W.F.L.I.C.F.W.[O=C(O)CCCN[*:1]]}$$$$V2.0; SMILES CC[C@H](C)[C@H](NC(=O)[C@H](CC(C)C)NC(=O)[C@H](Cc1ccccc1)NC(=O)[C@H](Cc1c[nH]c2ccccc12)NC(=O)[C@H](CCSC)NC(C)=O)C(=O)N[C@@H](CS)C(=O)N[C@@H](Cc1ccccc1)C(=O)N[C@@H](Cc1c[nH]c2ccccc12)C(=O)NCCCC(=O)O) [SEQ ID NO: 197] next
Found: ≤ 7.5 µM

Lookup: Please answer likewise for Ac-MWLLISFWG-OH [SEQ ID NO: 218]
Found: ≤ 7.5 µM

Lookup: Here is the next binder: FSRMWFLISFW-NH2 [SEQ ID NO: 81]
Found: > 30 µM
